Measured koff by item
target: T1, CEA-derived … (SEQ ID NO: 71)-HLA-A*0201 complex (biotin on the C-terminal biotinylation tag (enzymatic, BirA)); assay: Biacore SPR, pMHC immobilised
T1 construct: also called soluble biotinylated HLA-A2-peptide complex; not shown: C-terminal biotinylation tag that replaces the transmembrane and cytoplasmic domains

SEQ ID NO 33 (receptor) MGHLPKPTLWAEPGSVITMDQPVTLRCQGGQETQEYRLYREKKTAPWITRIPQELVKKGQFPIPSITWEHAGRYRCYYGSDTAGRSESSDPLELVVTGVYIKPTLSAQPSPVVNSGGNVTLQCDSQVAFDGFILCKEGEDEHPQCLNSQPHARGSSRAIFSVGPVSPSRRWWYRCYAYVAWAPYEWSLPSDLLELDVDG = ≤ 2 s⁻¹

Next binder, koff to be filled in.
Look at this binder and give its reported koff. SEQ ID NO 65 (receptor) MGHLPKPTLWAEPGSVITMDQPVTLRCQGGQETQEYRLYREKKTAPWITRIPQELVKKGQFPIPSITWEHAGRYRCYYGSDTSQWSASSDPLELVVTGVYIKPTLSAQPSPVVNSGGNVTLQCDSPFIAEGFILCKEGEDEHPQCLNSQPHARGSSRAIFSVGPVSPSRRWWYRCYAYMSWSPYEWSLPSDLLELDVDG ≤ 2 s⁻¹
